# study.target: T1, UNK ZnF1-3 (human, UniProt Q9C0B0 31-174)
# T1 sequence: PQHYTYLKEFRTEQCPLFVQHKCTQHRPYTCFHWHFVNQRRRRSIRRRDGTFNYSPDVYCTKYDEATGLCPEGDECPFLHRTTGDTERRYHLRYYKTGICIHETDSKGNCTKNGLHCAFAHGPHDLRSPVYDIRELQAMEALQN
# assay.text: nsRBNS (natural sequence RNA bind-n-seq); RBNS binding buffer (assumed for nsRBNS): 25 mM Tris pH 7.5, 150 mM KCl, 3 mM MgCl2, 0.01% Triton X-100, 500 ug/ml BSA, 20 U/ml SUPERase-In, 4 C; UNK is unkempt and MSI1 is Musashi-1; names of the RNAs are library labels; protein concentration not given here; high values mean tight binding
The full ranking holds about 24,000 sequences; the median of “enrichment r” is about 0.99, and the highest 2% start at about 3.7. The entries come from a sample that favours the highest values as a whole.
binding signal overview
Numbers only; they are read as enrichment R.

{"binder": "105548853_105553245_153_3pUTR_ENSMUSG00000068798_ENSMUST00000090678|mouse|control|control (ssRNA) RNA: GGGAGUUCUACAGUCCGACGAUCAUUUUUCAACAAAAAUCCCCUGAACAAACUGAACUGUCAGAGCAGACUUCCCCACGCCUCCUGAACCAAGGACUACUAGCUUGUACUCACGCAUGAUGCGCUCUGUUUAAAUAUUGACAACAACAGAGGAUUGAGCAUCA", "endpoint.result": 1.18}

Now for another entry.
Which measured binding signal value corresponds to chr10:112362630:112362631:-_ENSMUSG00000074748_ENSMUST00000099276|mus_mus|motif|central (ssRNA) RNA: GGGAGUUCUACAGUCCGACGAUCGGAUUACUUAUUAAAAAAUAAGAAUCUCCAAAACAAAGGACAGUGGUGAAUUUCAAACGGCCCUCCCCCAAUGAUCCCAGCAUGCGAUAAUGCCAGGUAGUGGCCCCUGGGCAUGCGAUGCAACAGAGGAUUGAGCAUCA ?
0.719

Provenance of the data: paper PMC12136788
